Test system: NAD-dependent protein deacylase sirtuin-5, mitochondrial (Homo sapiens) (UniProt Q9NXA8)
Sequence (Q9NXA8 whole entry, looked up): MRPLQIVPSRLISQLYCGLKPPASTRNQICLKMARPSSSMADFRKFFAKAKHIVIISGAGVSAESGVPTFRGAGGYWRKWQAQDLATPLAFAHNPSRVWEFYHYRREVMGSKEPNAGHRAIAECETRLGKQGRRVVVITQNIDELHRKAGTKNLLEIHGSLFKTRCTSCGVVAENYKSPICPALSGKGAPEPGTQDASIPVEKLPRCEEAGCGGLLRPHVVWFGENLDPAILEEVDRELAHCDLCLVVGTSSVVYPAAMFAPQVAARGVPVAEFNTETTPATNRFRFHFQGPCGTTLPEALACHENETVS
Protocol description: blockers of sirtuin-5 deacylase activity – biochemical, fluorescence imaging, single point, set 5, primary screen (AID 652115)
Stated conditions: Purified SirT5, succinyl-peptide AMC, trypsin-coupled fluorescence; at 15 µM
Among all 330,000 compounds or so, about 3,800 (1.2%) were called active. Rule as the data show it: active = inhibition above about 15%; inconclusive = no clear call, values can overlap the other calls; inactive = below that. Shown is part of a subset that was picked to be rich in actives.
Entry note: the call must match one of class 1 = active, class 0 = inactive

So what was the verdict on "O=C(NNc1ncnc2c1cnn2-c1ccccc1)c1ccco1" in this test? class 1

* * *

Test system: NAD-dependent protein deacylase sirtuin-5, mitochondrial (Homo sapiens) (UniProt Q9NXA8)
Protocol description: blockers of sirtuin-5 deacylase activity – biochemical, fluorescence imaging, single point, set 5, primary screen (AID 652115)
Stated conditions: Purified SirT5, succinyl-peptide AMC, trypsin-coupled fluorescence; at 15 µM; stronger effect = higher value
Among all 330,000 compounds or so, about 3,800 (1.2%) were called active. The entries come from a sample that favours actives as a whole.
Observable: inhibition (%)
One number for each entry, in %.

Give measured inhibition for every item shown.
1. Cc1ccc(S(=O)(=O)N2C[C@H](O)COC[C@H]3O[C@H](CC(=O)N[C@H]4CCN(Cc5ccccc5)C4)CC[C@@H]32)cc1
2. COCC(=O)Nc1ccc2c(c1)[C@H]1C[C@H](CC(=O)NCc3ccc(OC)cc3)O[C@@H](CO)[C@H]1O2
3. COc1cccc(/C=C2/SC(=S)N(CC(=O)NC3C=CS(=O)(=O)C3)C2=O)c1 (centres undefined)
4. COc1ccc2c3c(n(C)c2c1)[C@@H](CO)NCC31CCN(CC2CCCC2)CC1

1: -1.53; 2: -0.814; 3: 7.07; 4: -0.874

* * *

Test system: NAD-dependent protein deacylase sirtuin-5, mitochondrial (Homo sapiens)
Protocol description: blockers of sirtuin-5 deacylase activity – biochemical, fluorescence imaging, single point, set 5, primary screen (AID 652115)
Stated conditions: Purified SirT5, succinyl-peptide AMC, trypsin-coupled fluorescence; at 15 µM
Among all 330,000 compounds or so, about 3,800 (1.2%) were called active. No stated cut-off is given here; in the data, active means inhibition above about 15%; inconclusive means no clear call, values can overlap the other calls; inactive means below that. What follows is part of a selection rich in actives, with near analogues and random picks from the rest.
Allowed answers: active, inactive

Solved entries:
>>> assigned_category("NC1=C([N+](=O)[O-])C(c2ccccc2)C2=C(CCCC2=O)O1 (stereo not drawn)")
"active"
>>> assigned_category("COc1cc(C2C3=C(CCCC3=O)OC3=C2C(=O)CCC3)ccc1OCC(=O)Nc1ccccc1")
"inactive"
>>> assigned_category("CO[C@H]1O[C@H](CO)[C@@H](OC(=O)Nc2ccccc2)[C@H](OC(=O)Nc2ccc3c(c2)OCO3)[C@H]1OC(=O)Nc1ccc2c(c1)OCO2")
"inactive"

Called result for "C[C@@H]1CN([C@H](C)CO)C(=O)c2cccc(NC(=O)CCCCCC(=O)Nc3ccccc3N)c2O[C@H]1CN(C)Cc1ccc(Oc2ccccc2)cc1" active

Hello, I am checking results. What call was entered for "C[C@@H]1CN([C@@H](C)CO)C(=O)c2cc(-c3ccc(C#N)cc3)cnc2O[C@@H]1CN(C)Cc1cccnc1" ? inactive

* * *

Test system: NAD-dependent protein deacylase sirtuin-5, mitochondrial (Homo sapiens) (UniProt Q9NXA8)
Protocol description: blockers of sirtuin-5 deacylase activity – biochemical, fluorescence imaging, single point, set 5, primary screen (AID 652115)
Stated conditions: Purified SirT5, succinyl-peptide AMC, trypsin-coupled fluorescence; at 15 µM; stronger effect = higher value
The campaign covered roughly 330,000 compounds. About 3,800 (1.2%) were called active. This excerpt belongs to a sample that is enriched for actives.
For each of the compounds below, state its inhibition.
One number for each entry, in %.

>>> numeric_readout("COc1ccc(-c2nc(N)ncc2-c2ccc(Cl)cc2)c(O)c1")
-4.03
>>> numeric_readout("Cc1cccc(C(=O)NCc2nnc(SC(C)C(=O)Nc3nnc(C)s3)n2C)c1 (centres undefined)")
21.7
>>> numeric_readout("Cc1csc(NC(=O)c2ccc(-c3ccc(Cl)cc3Cl)o2)n1")
-0.507

Readout inhibition for "C=C(C)COc1ccc(-c2nc(N)ncc2-c2ccccc2OC)c(O)c1" , test system NAD-dependent protein deacylase sirtuin-5, mitochondrial (Homo sapiens) (UniProt Q9NXA8), was -0.166

* * *

Would you mind telling me the reported inhibition of each entry?
Test system: NAD-dependent protein deacylase sirtuin-5, mitochondrial (Homo sapiens) (UniProt Q9NXA8)
Protocol description: blockers of sirtuin-5 deacylase activity – biochemical, fluorescence imaging, single point, set 5, primary screen (AID 652115)
Stated conditions: Purified SirT5, succinyl-peptide AMC, trypsin-coupled fluorescence; at 15 µM; stronger effect = higher value
The campaign covered roughly 330,000 compounds. About 3,800 (1.2%) were called active. Many of the other results were omitted from the sample, so actives are more common in it than they were.

Batch request: inhibition for each of the following compounds.
1. O=C(c1cccnc1)N1CC2(C1)[C@@H](c1ccccc1)[C@H](CO)N2C(=O)C1CCC1
2. Cc1ccc(C)c(NC(=O)c2ccc3nccnc3c2)c1
3. COC(=O)c1ccc([C@@H](O)[C@H](C)C(=O)CC(=O)OC(C)(C)C)cc1

1: -1.71% (inactive); 2: 0.033% (inactive); 3: 37.8% (active)

* * *

Test system: NAD-dependent protein deacylase sirtuin-5, mitochondrial (Homo sapiens)
Protocol description: blockers of sirtuin-5 deacylase activity – biochemical, fluorescence imaging, single point, set 5, primary screen (AID 652115)
Stated conditions: Purified SirT5, succinyl-peptide AMC, trypsin-coupled fluorescence; at 15 µM
In all, about 330,000 compounds went through this assay and about 3,800 (1.2%) were called active. No stated cut-off is given here; in the data, active means inhibition above about 15%; inconclusive means no clear call, values can overlap the other calls; inactive means below that. Shown is part of a subset that was picked to be rich in actives.
Your answer must be one of the following: active, inactive

>>> assigned_category("CN1C(=O)c2cc(NC(=O)c3cccc(F)c3)ccc2OC[C@H]2O[C@@H](CC(=O)NCc3ccccc3Cl)CC[C@@H]21")
"inactive"
>>> assigned_category("O=C(C[C@@H]1CC[C@@H]2[C@H](COC[C@H](O)CN2S(=O)(=O)c2ccc(Oc3ccccc3)cc2)O1)NCCN1CCCCC1")
"inactive"
>>> assigned_category("CO[C@H]1CN(C)C(=O)c2cc(NC(=O)Nc3ccccc3F)ccc2OC[C@H](C)N(C)C[C@H]1C")
"inactive"
>>> assigned_category("O=C1CN(Cc2ccc(F)cc2)C[C@H]2[C@@H](c3ccc(Br)cc3)[C@H](CO)N12")
"inactive"
>>> assigned_category("Cc1ccccc1C(=O)OC1OC(=O)C(Cl)=C1Nc1ccccc1 (stereo not given)")
"inactive"

Recorded call for "CCOC(=O)[C@]12CCCC=C1N(CCC1=CCCCC1)C(=O)[C@H](CC(=O)N1CCCCC1)C2" ? inactive

* * *

Would you kindly list inhibition for each of these compounds?
Test system: NAD-dependent protein deacylase sirtuin-5, mitochondrial (Homo sapiens)
Protocol description: blockers of sirtuin-5 deacylase activity – biochemical, fluorescence imaging, single point, set 5, primary screen (AID 652115)
Stated conditions: Purified SirT5, succinyl-peptide AMC, trypsin-coupled fluorescence; at 15 µM; stronger effect = higher value
The whole screen tested about 330,000 compounds, of which about 3,800 (1.2%) were called active. The list comes from a sample in which actives are over-represented; it also holds close analogues and randomly drawn compounds.
Numbers only, in %.

Recorded inhibition, per entry:
>>> numeric_readout("O=c1ccc2c(-c3ccccc3S(=O)(=O)O)c3ccc(O)c(O)c3oc-2c1O")
15.8
>>> numeric_readout("C[C@H](CO)N1C[C@H](C)[C@H](CN(C)C(=O)c2cccnc2)Oc2ncc(C3=CCCC3)cc2C1=O")
-8.88
>>> numeric_readout("CC(C)NC(=O)N(C)C[C@@H]1Oc2ccc(NC(=O)C3CC3)cc2C(=O)N([C@@H](C)CO)C[C@H]1C")
0.185
>>> numeric_readout("CN(C)C(=O)c1ccc(-c2ccc(C3[C@@H]4CN(C(=O)Nc5ccccc5)C[C@H]3N4)cc2)cc1 (stereo partly specified)")
-1.69

Give one value of inhibition per listed compound.
1. COCOCCn1cc(CN2CCS(=O)(=O)N(Cc3ccc(-c4cccc(N(C)C)c4)cc3)C(CC(C)C)C2=O)nn1 (stereo unspecified)
2. COc1cccc(-c2cnc3c(c2)C(=O)N([C@@H](C)CO)C[C@H](C)[C@H](CN(C)C(C)=O)O3)c1
3. CC(=O)Nc1ccc2c3c(ccc([N+](=O)[O-])c13)CC2
4. CCCNC(=O)N1[C@H](CO)[C@@H]2c3ccccc3N(C(=O)C3CC3)C[C@@H]21
5. Cc1noc(C)c1S(=O)(=O)N(C)C[C@H]1Oc2ccc(NC(=O)C3CCCCC3)cc2C(=O)N([C@H](C)CO)C[C@@H]1C
6. C[C@H]1CN([C@@H](C)CO)C(=O)c2cc(-c3cccc(F)c3)cnc2O[C@@H]1CN(C)C(=O)c1ccccn1
7. Cc1noc(C)c1S(=O)(=O)N(C)C[C@@H]1Oc2ccc(NC(=O)C3CC3)cc2CC(=O)N([C@@H](C)CO)C[C@@H]1C
8. O=C(C1CC1)N1CC(=O)N2[C@H](CO)[C@@H](c3ccc(-c4ccccc4F)cc3)[C@@H]2C1

1. -0.197
2. 2.24
3. -1.7
4. 1.05
5. -3.3
6. 0.073
7. 1.59
8. -3.61
